Experimental system: T1, recombinant human Tau monomer, 2N4R isoform (amino acids 2-441) (human, UniProt P10636-8 2-441)
T1 construct: range 2-441; N-terminal His-tag removed with TEV protease; also called monomeric Tau
T1 sequence (P10636 other isoform, or with tags, fused parts or gaps limits assumed): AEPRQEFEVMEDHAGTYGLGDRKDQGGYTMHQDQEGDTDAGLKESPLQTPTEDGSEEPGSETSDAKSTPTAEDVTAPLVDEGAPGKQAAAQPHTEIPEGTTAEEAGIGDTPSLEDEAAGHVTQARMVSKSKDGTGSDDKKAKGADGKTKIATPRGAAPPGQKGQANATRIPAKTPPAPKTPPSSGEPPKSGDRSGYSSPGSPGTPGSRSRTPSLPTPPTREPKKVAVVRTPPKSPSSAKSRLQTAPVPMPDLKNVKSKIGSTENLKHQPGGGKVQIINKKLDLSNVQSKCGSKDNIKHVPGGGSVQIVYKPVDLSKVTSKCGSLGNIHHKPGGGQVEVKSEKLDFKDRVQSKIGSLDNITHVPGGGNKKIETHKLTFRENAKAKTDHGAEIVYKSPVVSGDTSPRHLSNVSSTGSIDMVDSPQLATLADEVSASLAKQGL
Assay remarks: SPR high-resolution kinetics, hIgG1
Experimental readout: Kd (nM)
Express the result in nM but write the number alone.

Ask: Query: Kd; subject: hu125B11.v17 (HC3+LC1) (antibody, IgG1, V domains shown, also called hu125B11 HC3 + 125B11 LC1) VH: EVQLVESGGGLVQPGGSLRLSCAASRFIFSNYWMNWVRQAPGKGLEWVAQIRLKSDNYATHYAESVKGRFTISRDDSKNTLYLQMNSLRAEDTAVYYCTGGTTYWGQGTLVTVSS VL: DIQMTQSPSSLSASVGDRVTITCKASQNVGTAVAWYQQKPGKSPKLLIYSASIRYTGVPSRFSGSGSGTDFTLTISSLQPEDFATYFCQQFRTYPYTFGQGTKVEIK
Reply: 10.5

Ask: Value lookup for Kd; key = hu125B11.v28 (HC4+LC4) (antibody, IgG1, V domains shown, also called hu125B11 HC4 + 125B11 LC4) VH: EVQLVESGGGLVQPGGSLRLSCAASRFIFSNYWMNWVRQAPGKGLEWVAQIRLKSDNYATHYAESVKGRFTISRDNSKNTLYLQMNSLRAEDTAVYYCTGGTTYWGQGTLVTVSS VL: DIQMTQSPSSLSASVGDRVTITCKASQNVGTAVAWYQQKPGKAPKLLIYSASIRYTGVPSRFSGSGSGTDFTLTISSLQPEDFATYYCQQFRTYPYTFGQGTKVEIK
Reply: 10.2

Ask: So what's the measured Kd for this one? hu94B2.v105 (94B2.HC1 + 94B2.LC13) (antibody, IgG1, V domains shown, also called hu94B2 HC1 + LC13) VH: EVQLVQSGAEVKKPGASVKVSCKASGYSLTGYTMNWVRQAPGQGLEWIGLISPYNGVTSYNQKFKGRATLTVDKSTSTAYLELSSLRSEDTAVYYCARQGAYWGQGTLVTVSS VL: DIVMTQTPLSLPVTPGQPASISCKSSQSLLDSDGKTYLNWLLQKPGQSPQRLIYLVSKLDSGVPDRFSGSGSGTDFTLKISRVEAEDVGVYYCWQGTHFPWTFGQGTKVEIK
Reply: 3.7

Ask: Returns the measured Kd for the input binder. Input: hu125B11.v26 (HC4+LC2) (antibody, IgG1, V domains shown, also called hu125B11 HC4 + 125B11 LC2) VH: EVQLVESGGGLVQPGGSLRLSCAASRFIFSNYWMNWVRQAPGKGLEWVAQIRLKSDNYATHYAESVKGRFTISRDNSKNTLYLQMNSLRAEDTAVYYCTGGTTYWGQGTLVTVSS VL: DIQMTQSPSSLSASVGDRVTITCKASQNVGTAVAWYQQKPGKAPKLLIYSASIRYTGVPSRFSGSGSGTDFTLTISSLQPEDFATYFCQQFRTYPYTFGQGTKVEIK
Reply: 9.5
